Target or system UniProtKB Q92918; metric IC50; compiled from varied reports.
Measured property: IC50

* CNc1ncc2c(n1)N1CCN=C1C(c1cc(NC(=O)C3(C(=O)Nc4ccc(F)cc4)CC3)c(F)cc1C)=C2 | > 10000 nM
* CN(C)C1CN(c2nc(Nc3ccc(-c4cnc5cc(F)ccn45)c4c3C(=O)NC4)ccc2C2CCOC2)C1 (stereo in doubt) | < 100 nM
* Cc1ccn2c(-c3ncc(Nc4ccc(N5CCOCC5)cn4)c4c3CNC4=O)cnc2c1 | 100 to 1000 nM
* CC(C)c1nc2c(N3CCC4(CCNC4)C3)c(NC(=O)c3ccc(=O)n(-c4c(F)cccc4F)n3)ccc2n1C (stereo not shown) | < 100 nM
